Test system: SF-295
Assay: NCI tumour cell line growth inhibition, 48 h
The source made the active and inactive calls. Rule as the data show it: active = GI50 up to about 1.1 µM and inactive = higher.
A correct response names exactly one class from True (active), False (inactive)

Solved cases (8 shown):
COc1ccc2c(c1)CCC(CN1CCN(CCOC(c3ccc(F)cc3)c3ccc(F)cc3)CC1)C2O (stereo not given) :: False
C/C(=N\NC(=O)N/N=C(\C)c1ccccn1)c1ccccn1 :: True
CN(C)CCNC(=O)c1cccc2c1nc(-c1cccnc1)c1ccccc12 :: False
COC(C(O)c1ccc2c(c1)OCO2)P(=O)(c1ccccc1)c1ccccc1 (stereo not given) :: False
CC(C)OP(=O)(c1ccccc1)c1ccc2c(c1)OCCOCCOCCOCCO2 (stereo not given) :: False
CCN(CC)CSc1nc2ccccc2[nH]1 :: False
Cc1ccc(/C=C2\CCCC\C2=N\O)cc1 :: False
CC1(O)C=CC(=O)C=C1 :: False

Query: What was the test verdict on O=[N+]([O-])c1ccc(-n2nnc(C3=NCCN3)c2-c2ccccc2)cc1 ?
Reply: False

Query: What was the test verdict on CCOC(=O)/C=C(\C(=O)OCC)n1ccc(=O)n(Cc2cnnn2CCCCOC(C)=O)c1=O ?
Reply: False
